Where do the numbers come from? From ChEMBL document CHEMBL1201862.

# assay system: Corticotropin-releasing factor receptor 2/Corticotropin-releasing factor-binding protein (Homo sapiens, UniProt P24387+Q13324)
# Sequence (Q13324 whole entry): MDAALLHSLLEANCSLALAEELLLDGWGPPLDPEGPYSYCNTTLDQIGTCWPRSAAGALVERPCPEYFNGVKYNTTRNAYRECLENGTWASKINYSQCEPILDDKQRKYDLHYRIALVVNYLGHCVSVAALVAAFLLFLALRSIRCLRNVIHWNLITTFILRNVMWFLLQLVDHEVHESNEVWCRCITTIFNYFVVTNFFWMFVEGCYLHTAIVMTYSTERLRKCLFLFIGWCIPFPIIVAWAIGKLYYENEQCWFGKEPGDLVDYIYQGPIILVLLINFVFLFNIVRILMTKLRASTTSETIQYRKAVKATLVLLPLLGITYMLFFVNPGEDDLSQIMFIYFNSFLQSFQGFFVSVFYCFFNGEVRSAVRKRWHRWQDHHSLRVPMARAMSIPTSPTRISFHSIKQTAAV
# Sequence (P24387 whole entry): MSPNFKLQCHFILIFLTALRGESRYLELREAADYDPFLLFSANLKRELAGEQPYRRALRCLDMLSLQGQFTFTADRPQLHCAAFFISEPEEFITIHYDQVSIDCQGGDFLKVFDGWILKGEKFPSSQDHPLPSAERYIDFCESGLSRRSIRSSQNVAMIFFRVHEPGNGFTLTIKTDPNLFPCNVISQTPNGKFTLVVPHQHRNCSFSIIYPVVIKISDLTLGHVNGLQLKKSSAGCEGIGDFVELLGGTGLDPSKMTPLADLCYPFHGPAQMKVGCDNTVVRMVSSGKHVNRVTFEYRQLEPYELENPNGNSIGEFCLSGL
# test details: Dose Response confirmation of uHTS hits for small molecule antagonists of the CRF-binding protein and CRF-R2 receptor complex.
# Format: functional
# test conditions: read-out: IC50_Mean
Active and inactive are the calls of the source. Rule as the data show it: actives have a measured IC50 and inactives only a lower limit.
Your reply should match one of these outcome classes. active, inactive

Some solved cases for reference:
>>> category("COc1ccccc1-c1ccc(SCc2cccc(F)c2)nn1")
"active"
>>> category("O=C(Nc1ccc(S(=O)(=O)N2CCOCC2)cc1)c1ccc(Cl)c([N+](=O)[O-])c1")
"inactive"
>>> category("CNP(=O)(Oc1ccccc1)OC12CC3CC(CC(C3)C1)C2 (stereo unspecified)")
"inactive"
>>> category("CC(=O)NC(Cc1cccc(C)c1)C(=O)NC1CCN(c2ncccc2[N+](=O)[O-])CC1 (stereo unspecified)")
"active"
>>> category("C=C(C)COc1ccc(-c2n[nH]cc2Oc2ccccc2OC)c(O)c1")
"active"
>>> category("CCOC(=O)c1c[nH]nc1N=C(S)Nc1ccc(Cl)cc1")
"inactive"
>>> category("COc1cc(NC(=O)CSc2cc(C)c3cc(C)cc(C)c3n2)c(C(=O)O)cc1OC")
"inactive"
>>> category("O=C(Nc1ccn(CCCNCc2ccc3c(c2)OCO3)c(=O)n1)OCc1ccccc1")
"inactive"

Per the assay record, what outcome was assigned to `O=C(O)c1ccc(/C=N/Nc2cccc(C(F)(F)F)c2)cc1` ?
active

# outcome recorded in this test, key = CCCCC(C(=O)O)C(C)CC(=O)Nc1nncs1 (stereo unspecified)
inactive

How was CCOc1ccccc1/C=C(/NC(=O)c1ccccc1)C(=O)NC(C)c1ccccc1 (stereo unspecified) classified in this test?
inactive

Which outcome was assigned to `CCCC(=O)Nc1ccc(-c2nc3cc(C)c(C)cc3o2)c(O)c1` in this test?
inactive

Hi, sorry to bother you, what did the test record for O=C(NC1CCCC1)C1CCC(CNS(=O)(=O)c2ccc(F)cc2)CC1 (stereo unspecified) ?
inactive
